experimental-system: HLA-A*24 (human)
test: UV-ligand exchange ELISA
assay-metric: peptide exchange yield

Completed entries (count: 6):
| binder | peptide exchange yield |
| --- | --- |
| YFDKVVTL [peptide SEQ ID No 215] | 20 to 49% |
| YYVYIMNHL [peptide SEQ ID No 225] | 50 to 75% |
| AYVVFVSTL [peptide SEQ ID No 207] | 20 to 49% |
| WYVNGVNYF [peptide SEQ ID No 189] | 20 to 49% |
| VFTSTARAF [peptide SEQ ID No 183] | 50 to 75% |
| VHIPEVYLI [peptide SEQ ID No 205] | 50 to 75% |

Ask: Quick one: peptide exchange yield for NYINRILKL [peptide SEQ ID No 167] ?
Reply: > 75%

Ask: Quick one: peptide exchange yield for IYKVGAPTI [peptide SEQ ID No 185] ?
Reply: 50 to 75%
